Target: human Claudin18.2 (human)
Assay: cell-based or functional assay
Measurement Kind: CDC EC50 (µg/mL)
Only the number, expressed in µg/mL, is required.

Specify measured CDC EC50 for 203A6D5 (antibody, V domains shown) VH: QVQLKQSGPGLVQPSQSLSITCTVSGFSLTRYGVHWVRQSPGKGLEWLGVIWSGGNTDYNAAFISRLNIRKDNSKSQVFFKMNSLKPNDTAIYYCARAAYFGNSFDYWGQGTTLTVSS VL: DIVMTQSPSSLPVTAGEKVTMSCKSSQSLLNSGNQKNYLTWYQQKPGQPPKLLIYWASTRDSGVPDRFTGSGSGTDFTLTISSVQAEDLAVYYCQNNYIYPLTFGAGTKLELK .
0.336

Specify measured CDC EC50 for 422F4B6 (antibody, V domains shown) VH: DVQLVESGGGLVQPGGSRKLSCAASGFSFSSFGMHWVRQAPEKGLEWVAYISSGSSPIYYADTVKGRFIISRDNPKNTLFLQMTSLRSEDTAMYFCARIYYGNSFAYWGQGTLVTVSA VL: DIVMTQSPSSLTVTAGEKVTMSCKSSQTLLNSGNQKNYLTWYQQKPGQPPKLLIYWASTRESGVPDRFTGSGSGTDFTLTISSVQAEDLAVYYCQNAYSYPLTFGSGTKLELK .
6.03

Specify measured CDC EC50 for 392C2F10 (antibody, V domains shown) VH: EVQLQQSGPELVKPGASMKISCKASGYSFTGYTMNWVKQSLGKNLEWIGLINPFNGGTTYNQKFKGKATLTVDKSSSTAYMELLSLTSDDSAVYYCTRGDYWGQGTTLTVSS VL: DIVMTQSPSSLTVTAGEKVTMSCKSSQSLLNSGNQKNYLTWYQQKPGQPPKLLIYWASTRESGVPDRFAGSGSGTDFTLTISSVQAEDLAVYYCQSDYSYPTFGAGTKLELK .
47.6

Specify measured CDC EC50 for 426H6E11 (antibody, V domains shown) VH: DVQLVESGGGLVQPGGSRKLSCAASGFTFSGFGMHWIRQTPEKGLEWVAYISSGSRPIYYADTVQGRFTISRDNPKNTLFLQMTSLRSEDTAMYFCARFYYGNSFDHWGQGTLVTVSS VL: DIVMTQFPSFLTVTAGEKVTMSCKSSQTLLNSGNQKNYLTWYQQKPGQPPKLLIYWASTRESGVPDRFTGSGSGTDFTLTISSVQAEDLALYYCQNAYSFPLTFGAGTNLELK .
2.51

Specify measured CDC EC50 for 275H9A2 (antibody, V domains shown) VH: QAYLQQSGAELVRSGASVKMSCRASGYSFTSHNMHWVKQTPGQGLEWIGYIYPGNGGSYYNQKFKGKAILTADTSSSTAYMQISSLTSEDSAVYFCTRDYYGNSFVYWGQGTLVTVSA VL: DVVMTQSPSSLTEKTGEKVSMSCKSSQSLLNSGNQKNYLTWYQQKPGQPPKLLIYWASTRESGVPDRFTGSGSGTDFTLTISSLQTEDLAVYYCQNNFRYPFTFGAGTKLELK .
1.15

Specify measured CDC EC50 for 250F4G1 (antibody, V domains shown) VH: QAYLQQSGAELVRSGASVKMSCKASGYTFTSHNMHWVKQTPGQGLEWIGYIYPGNGRTNYNQKFKGKATLTADTSSSTAYMQISSLTSEDSAVYFCTRDYYGNSFAYWGQGTLVTVSA VL: DIVMTQSPSSLTEKVGERVSMSCKSSQSLFNSGNQKNYLTWYQQKPGQPPKLLIYWASTRESGVPDRFTGSGSGTDFTLTISSVQAEDLAVYYCQNDYWYPFTFGAGTKLELK .
1.64

Specify measured CDC EC50 for 196A12B10 (antibody, V domains shown) VH: QIQWVQSGPELKKPRETVKISCKASGYTFTDYSMHWVKQAPGKGLKWMGWINSETGEATYADDFRGRFALSLETSATTAFLQINSLKNEDTGTYFCARFYYGNSFASWGQGTTLTVSS VL: DIVMTQFPSSLTVTAGEKVTMTCKSSQSLLNGGNQKNYLTWYQQKPGLPPKLLIYWASTRESGVPDRFTGSGSGTEFTLTISSVQAEDLAVYYCQNNYYFPLTFGAGTKLELK .
1.69

Specify measured CDC EC50 for 407A8G10 (antibody, V domains shown) VH: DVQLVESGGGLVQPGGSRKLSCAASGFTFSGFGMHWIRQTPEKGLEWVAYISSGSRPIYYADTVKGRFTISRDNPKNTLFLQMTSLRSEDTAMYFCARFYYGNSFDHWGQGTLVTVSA VL: DIVMTQSPSFLTVTAGEKVTMSCRSSQSLLNSGNQRNYLTWYQQKPGQPPKLLIYWASTRESGVPDRFTGSGSGTDFALTISSVQAEDLALYYCQNAYSFPLTFGAGTKLELK .
10.9

Specify measured CDC EC50 for 246B5F2 (antibody, IgM, V domains shown) VH: EVMLVESGGGLMKPGGSLKLSCAASEFTFSNYAMSWVRQTPEKRLEWVATISSGRSSTYYPDSVKGRFTISRDNAKNTLYLQMSSLRSEDTAMYYCAGLGRGNAMEYWGQGTSVTVSS VL: DIVMTQSPSSLTVTAGEKVTLSCKSSQSLLNSGNQKNYLTWYQQKPGQPPKLLIYWASTRESGVPDRFTGSGSGTDFILTINSVQAEDLAVYYCQNAYSYPFTFGSGTKLEIK .
0.179

Specify measured CDC EC50 for 240F8G2 (antibody, V domains shown) VH: QAYLQQSGAELVRSGASVKMSCKASGYTFTNYNIHWVKQTPGQGLEWIGYIYPGNGGNYYNQKFKGKATLTADTSSSTAYMQISSLTSEDSAVYFCARDYYGNSFAYWGQGTLVTVSA VL: DIVVTQSPSSLTVTAGEKVTMNCKSSQSLLNSGNQKNYLTWYQQKPGQPPKLLIYWASTRESGVPDRFTGSGSGTDFTLTISSVQAEDLAIYYCQNDYYYPLTFGAGTKLELK .
1.1
